# Test system: K. pneumoniae JIE4212
# CONDITION DETAILS: K. pneumoniae JIE4212; MHB (melimine/Mel4 with 0.2% BSA, 0.01% acetic acid); mean MIC
Square brackets hold non-standard residues; d marks the D form. Peptide text beside a SMILES is read from it. Nspe(4-Br) = C[C@H](NCC(=O)O)c1ccc(Br)cc1; Nspe = C[C@H](NCC(=O)O)c1ccccc1; Nlys = NCCCCNCC(=O)O
Items are presented alongside their recorded MIC of peptidomimetics.
A number alone suffices; assume µg/mL.

>  <MOLECULE>
C[C@@H](c1ccc(Br)cc1)N(CC(N)=O)C(=O)CN(C(=O)CN(CCCCN)C(=O)CN(C(=O)CN(C(=O)CNCCCCN)[C@@H](C)c1ccccc1)[C@@H](C)c1ccc(Br)cc1)[C@@H](C)c1ccccc1 [TM2] (H-[Nlys][Nspe][Nspe(4-Br)][Nlys][Nspe][Nspe(4-Br)]-NH2)

>  <OBSERVED>
62.5

$$$$

Ask | Form field: MIC of peptidomimetics recorded for C[C@@H](c1ccc(Br)cc1)N(CC(=O)N(CCCCN)CC(=O)N(CC(=O)N(CC(=O)N(CCCCN)CC(N)=O)[C@@H](C)c1ccc(Br)cc1)[C@@H](C)c1ccccc1)C(=O)CN(C(=O)CNCCCCN)[C@@H](C)c1ccccc1 [TM12] (H-[Nlys][Nspe][Nspe(4-Br)][Nlys][Nspe][Nspe(4-Br)][Nlys]-NH2) with K. pneumoniae JIE4212 (enter value)
Reply | 125

---

# Tested on: C. auris CBS12373
# ASSAY PROCEDURE: Broth microdilution MIC
# Assay type: cell-based, Candida auris
# CONDITION DETAILS: CBS 12 373; RPMI 1640 with MOPS, 5 × 10^3 CFU ml^−1; ≥90% reduction (≥50% for fluconazole)
Square brackets hold non-standard residues; d marks the D form. Peptide text beside a SMILES is read from it. Nspe(4-Br) = C[C@H](NCC(=O)O)c1ccc(Br)cc1; N(tridecyl)Gly = CCCCCCCCCCCCCNCC(=O)O; Nspe = C[C@H](NCC(=O)O)c1ccccc1; NDecylGly = CCCCCCCCCCNCC(=O)O; Nlys = NCCCCNCC(=O)O
The following compounds are shown together with reported MIC against C. auris values.
Answer format: numeric, µg/mL implied, no suffix.

Reference set, count: 5
>  <COMPOUND>
C[C@@H](c1ccc(Br)cc1)N(CC(=O)N(CCCCN)CC(=O)N(CC(=O)N(CC(=O)N(CCCCN)CC(N)=O)[C@@H](C)c1ccc(Br)cc1)[C@@H](C)c1ccccc1)C(=O)CN(C(=O)CNCCCCN)[C@@H](C)c1ccccc1 [TM12] (H-[Nlys][Nspe][Nspe(4-Br)][Nlys][Nspe][Nspe(4-Br)][Nlys]-NH2)

>  <MIC against C. auris, µg/mL>
3.9

$$$$
>  <COMPOUND>
C[C@@H](c1ccccc1)N(CC(N)=O)C(=O)CN(C(=O)CN(CCCCN)C(=O)CN(C(=O)CN(C(=O)CN(CCCCN)C(=O)CN(C(=O)CN(C(=O)CN(CCCCN)C(=O)CN(C(=O)CN(C(=O)CNCCCCN)[C@@H](C)c1ccccc1)[C@@H](C)c1ccccc1)[C@@H](C)c1ccccc1)[C@@H](C)c1ccccc1)[C@@H](C)c1ccccc1)[C@@H](C)c1ccccc1)[C@@H](C)c1ccccc1 [TM1] (H-[Nlys][Nspe][Nspe][Nlys][Nspe][Nspe][Nlys][Nspe][Nspe][Nlys][Nspe][Nspe]-NH2)

>  <MIC against C. auris, µg/mL>
3.9

$$$$
>  <COMPOUND>
C[C@@H](c1ccccc1)N(CC(N)=O)C(=O)CN(CCCCN)C(=O)CN(C(=O)CN(C(=O)CN(CCCCN)C(=O)CN(C(=O)CN(C(=O)CN(CCCCN)C(=O)CN(C(=O)CN(C(=O)CNCCCCN)[C@@H](C)c1ccccc1)[C@@H](C)c1ccccc1)[C@@H](C)c1ccccc1)[C@@H](C)c1ccccc1)[C@@H](C)c1ccccc1)[C@@H](C)c1ccccc1 [TM6] (H-[Nlys][Nspe][Nspe][Nlys][Nspe][Nspe][Nlys][Nspe][Nspe][Nlys][Nspe]-NH2)

>  <MIC against C. auris, µg/mL>
2

$$$$
>  <COMPOUND>
CCCCCCCCCCCCCNCC(=O)N(CCCCN)CC(=O)N(CC(=O)N(CC(=O)N(CCCCN)CC(=O)N(CCCCN)CC(N)=O)[C@@H](C)c1ccccc1)[C@@H](C)c1ccccc1 [TM15] (H-[N(tridecyl)Gly][Nlys][Nspe][Nspe][Nlys][Nlys]-NH2)

>  <MIC against C. auris, µg/mL>
3.9

$$$$
>  <COMPOUND>
CCCCCCCCCCNCC(=O)N(CCCCN)CC(=O)N(CC(=O)N(CC(=O)N(CCCCN)CC(=O)N(CC(=O)N(CC(N)=O)[C@@H](C)c1ccccc1)[C@@H](C)c1ccccc1)[C@@H](C)c1ccccc1)[C@@H](C)c1ccccc1 [TM8] (H-[NDecylGly][Nlys][Nspe][Nspe][Nlys][Nspe][Nspe]-NH2)

>  <MIC against C. auris, µg/mL>
3.9

$$$$

Ask | Give its MIC against C. auris value. Item: C[C@@H](c1ccc(Br)cc1)N(CC(=O)N(CCCCN)CC(=O)N(CC(=O)N(CC(=O)N(CCCCN)CC(N)=O)[C@@H](C)c1ccc(Br)cc1)[C@@H](C)c1ccc(Br)cc1)C(=O)CN(C(=O)CNCCCCN)[C@@H](C)c1ccc(Br)cc1 [TM14] (H-[Nlys][Nspe(4-Br)][Nspe(4-Br)][Nlys][Nspe(4-Br)][Nspe(4-Br)][Nlys]-NH2)
Reply | 3.9

Ask | Give the measured MIC against C. auris of OC(Cn1cncn1)(Cn1cncn1)c1ccc(F)cc1F [Fluconazole, reference compound] .
Reply | 128

Ask | Could you share which MIC against C. auris value was measured for C[C@@H](c1ccc(Br)cc1)N(CC(N)=O)C(=O)CN(C(=O)CN(CCCCN)C(=O)CN(C(=O)CN(C(=O)CNCCCCN)[C@@H](C)c1ccccc1)[C@@H](C)c1ccc(Br)cc1)[C@@H](C)c1ccccc1 [TM2] (H-[Nlys][Nspe][Nspe(4-Br)][Nlys][Nspe][Nspe(4-Br)]-NH2) ?
Reply | 3.9

Ask | Item under review: C[C@@H]1[C@H](O)[C@@H](C)/C=C/C=C/C=C/C=C/C=C/C=C/C=C/[C@H](O[C@@H]2O[C@H](C)[C@@H](O)[C@H](N)[C@@H]2O)C[C@@H]2O[C@](O)(C[C@@H](O)C[C@@H](O)[C@H](O)CC[C@@H](O)C[C@@H](O)CC(=O)O[C@H]1C)C[C@H](O)[C@H]2C(=O)O [Amphotericin B, reference compound] . Reported MIC against C. auris?
Reply | 0.25
